# target.system: HIPK4 (Homo sapiens)
# Sequence (Q8NE63 whole entry, species assumed): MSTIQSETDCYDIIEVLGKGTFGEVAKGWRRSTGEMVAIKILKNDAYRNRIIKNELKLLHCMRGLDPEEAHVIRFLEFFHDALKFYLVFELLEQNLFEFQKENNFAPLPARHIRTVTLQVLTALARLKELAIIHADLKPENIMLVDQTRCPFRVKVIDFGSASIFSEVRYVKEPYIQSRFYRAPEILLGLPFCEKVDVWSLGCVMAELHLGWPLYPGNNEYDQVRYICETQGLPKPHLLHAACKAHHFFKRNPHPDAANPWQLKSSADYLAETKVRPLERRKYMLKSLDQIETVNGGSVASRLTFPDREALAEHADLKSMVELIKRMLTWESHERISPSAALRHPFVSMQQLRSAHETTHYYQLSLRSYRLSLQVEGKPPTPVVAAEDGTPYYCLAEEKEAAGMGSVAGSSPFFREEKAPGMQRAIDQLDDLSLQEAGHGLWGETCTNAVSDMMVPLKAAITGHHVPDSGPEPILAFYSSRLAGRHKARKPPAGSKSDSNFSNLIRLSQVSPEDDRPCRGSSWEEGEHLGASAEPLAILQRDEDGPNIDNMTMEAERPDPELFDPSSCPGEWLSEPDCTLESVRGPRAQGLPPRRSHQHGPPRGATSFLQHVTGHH
# assay.name: Kinase panel (mobility shift)
# Format: biochemical
value.type: inhibition at 5 µM

Consider the following illustrative entries.
smiles.representation | inhibition at 5 µM
CSc1nc(C(=O)Nc2ccc(Oc3ccnc(C(=O)NC4COC4)c3)c(F)c2)c(-c2ccc(F)c(F)c2)o1 | ≥ 95%
CNC(=O)c1cc(Oc2ccc(NC(=O)c3nc(SC)oc3-c3ccc(F)cc3F)cc2)ccn1 | 90 to 94%
CNC(=O)c1cc(Oc2ccc(NC(=O)c3nc(NC)sc3-c3ccc(F)cc3F)cc2F)ccn1 | ≥ 95%
CNC(=O)c1cc(Oc2ccc(NC(=O)c3nc(SC(C)C)oc3-c3ccc(F)cc3)cc2F)ccn1 | ≥ 95%
CNC(=O)c1cc(Oc2c(F)cc(NC(=O)c3nc(NC)sc3-c3ccc(F)cc3)cc2F)ccn1 | ≥ 95%

[in] May I ask what inhibition at 5 µM has been recorded for CNC(=O)c1cc(Oc2ccc(NC(=O)c3nc(SC)oc3-c3ccc(Cl)s3)cc2)ccn1 ?
[out] 90 to 94%

###

# target.system: LOK (Homo sapiens, UniProt O94804)
# Sequence (O94804 whole entry, species assumed): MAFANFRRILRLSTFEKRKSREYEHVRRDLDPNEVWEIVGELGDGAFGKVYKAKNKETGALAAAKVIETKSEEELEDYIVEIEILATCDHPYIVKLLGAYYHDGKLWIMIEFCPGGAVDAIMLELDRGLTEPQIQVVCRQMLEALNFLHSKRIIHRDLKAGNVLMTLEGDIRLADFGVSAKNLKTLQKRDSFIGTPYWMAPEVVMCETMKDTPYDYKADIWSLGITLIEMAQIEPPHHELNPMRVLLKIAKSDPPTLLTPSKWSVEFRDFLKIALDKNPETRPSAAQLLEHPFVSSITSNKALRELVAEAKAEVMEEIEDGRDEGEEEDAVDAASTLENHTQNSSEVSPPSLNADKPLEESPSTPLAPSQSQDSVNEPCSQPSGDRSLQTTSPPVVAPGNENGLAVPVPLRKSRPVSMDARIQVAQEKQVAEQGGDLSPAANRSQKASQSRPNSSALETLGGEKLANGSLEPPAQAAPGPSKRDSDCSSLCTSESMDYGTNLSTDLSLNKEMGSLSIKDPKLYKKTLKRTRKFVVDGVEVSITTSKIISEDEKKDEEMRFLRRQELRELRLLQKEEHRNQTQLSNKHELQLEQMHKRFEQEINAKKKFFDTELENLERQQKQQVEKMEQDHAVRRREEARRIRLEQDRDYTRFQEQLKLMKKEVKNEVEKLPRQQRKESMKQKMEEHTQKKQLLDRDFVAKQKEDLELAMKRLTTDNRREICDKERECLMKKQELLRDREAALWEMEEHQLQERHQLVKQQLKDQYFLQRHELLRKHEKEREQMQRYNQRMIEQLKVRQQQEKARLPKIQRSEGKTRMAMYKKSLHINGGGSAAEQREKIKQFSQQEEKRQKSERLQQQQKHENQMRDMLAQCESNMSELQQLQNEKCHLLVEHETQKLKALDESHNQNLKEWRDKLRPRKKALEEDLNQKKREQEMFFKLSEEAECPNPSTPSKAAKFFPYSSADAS
# assay.name: Kinase panel (mobility shift)
# Format: biochemical
# condition.info: at 5 um

smiles.representation | target.system | inhibition of kinase activity, LOK
CSc1nc(C(=O)Nc2ccc(Oc3ccnc(C(=O)NC4CNC4)c3)c(F)c2)c(-c2ccc(F)cc2)o1 | LOK (Homo sapiens, UniProt O94804) | D (category D for 50-79)
CNC(=O)c1cc(Oc2ccc(NC(=O)c3nc(NC)oc3-c3ccc(F)s3)cc2F)ccn1 | LOK (Homo sapiens, UniProt O94804) | D (category D for 50-79)
CNC(=O)c1cc(Oc2ccc(NC(=O)c3nc(OC)oc3-c3ccc(F)s3)cc2F)ccn1 | LOK (Homo sapiens, UniProt O94804) | D (category D for 50-79)

###

# target.system: BRK (Homo sapiens, UniProt Q13882)
# Sequence (Q13882 whole entry, species assumed): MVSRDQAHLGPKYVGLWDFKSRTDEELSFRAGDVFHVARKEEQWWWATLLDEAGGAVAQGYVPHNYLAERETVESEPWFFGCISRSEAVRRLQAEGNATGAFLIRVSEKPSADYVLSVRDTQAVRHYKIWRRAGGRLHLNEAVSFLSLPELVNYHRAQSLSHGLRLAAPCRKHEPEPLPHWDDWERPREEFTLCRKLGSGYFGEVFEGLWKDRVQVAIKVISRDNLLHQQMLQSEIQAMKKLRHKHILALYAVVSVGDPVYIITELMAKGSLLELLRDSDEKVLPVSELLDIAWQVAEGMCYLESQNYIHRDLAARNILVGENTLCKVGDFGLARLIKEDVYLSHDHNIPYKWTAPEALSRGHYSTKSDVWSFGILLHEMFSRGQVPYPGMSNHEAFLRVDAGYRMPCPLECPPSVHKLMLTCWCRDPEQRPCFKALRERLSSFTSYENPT
# assay.name: Kinase panel (mobility shift)
# Type: biochemical
value.type: inhibition at 5 µM

compound | value.type | measured.value
CSc1nc(C(=O)Nc2ccc(Oc3ccnc(C(=O)NC4COC4)c3)c(F)c2)c(-c2ccc(F)s2)o1 [Compound 28] | inhibition at 5 µM | < 50%

[in] May I ask what inhibition at 5 µM has been recorded for CSc1nc(C(=O)Nc2ccc(Oc3ccnc(-c4cnn(C)c4)c3)c(F)c2)c(-c2ccc(F)cc2)o1 [Compound 11] ?
[out] ≥ 95%

[in] May I ask what inhibition at 5 µM has been recorded for CNC(=O)c1cc(Oc2ccc(NC(=O)c3nc(OC4CC4)oc3-c3ccc(F)cc3)cc2F)ccn1 [Compound 32] ?
[out] ≥ 95%

[in] May I ask what inhibition at 5 µM has been recorded for CNC(=O)c1cc(Oc2ccc(NC(=O)c3nc(COC)oc3-c3ccc(F)cc3)cc2F)ccn1 [Compound 30] ?
[out] ≥ 95%

[in] May I ask what inhibition at 5 µM has been recorded for CNC(=O)c1cc(Oc2ccc(NC(=O)c3nc(SC(C)C)oc3-c3ccc(F)cc3)cc2F)ccn1 [Compound 34] ?
[out] 90 to 94%

[in] May I ask what inhibition at 5 µM has been recorded for CNC(=O)c1cc(Oc2ccc(NC(=O)c3nc(SC)oc3-c3ccc(F)cc3F)cc2F)ccn1 [Compound 12] ?
[out] ≥ 95%

[in] May I ask what inhibition at 5 µM has been recorded for CNC(=O)c1cc(Oc2c(F)cc(NC(=O)c3nc(NC)sc3-c3ccc(F)cc3)cc2F)ccn1 [Compound 19] ?
[out] 50 to 79%

All figures here come from patent US11629143B2.
